# target-or-test-system: BRAF G469A (Homo sapiens, UniProt P15056, G469A)
# Construct: Horizon Discovery (HCT-116 BRAF−/− cells); host or cells: HCT-116 BRAF−/− cells, clone 34, lentiviral transduction
# Sequence (P15056 whole entry G469A): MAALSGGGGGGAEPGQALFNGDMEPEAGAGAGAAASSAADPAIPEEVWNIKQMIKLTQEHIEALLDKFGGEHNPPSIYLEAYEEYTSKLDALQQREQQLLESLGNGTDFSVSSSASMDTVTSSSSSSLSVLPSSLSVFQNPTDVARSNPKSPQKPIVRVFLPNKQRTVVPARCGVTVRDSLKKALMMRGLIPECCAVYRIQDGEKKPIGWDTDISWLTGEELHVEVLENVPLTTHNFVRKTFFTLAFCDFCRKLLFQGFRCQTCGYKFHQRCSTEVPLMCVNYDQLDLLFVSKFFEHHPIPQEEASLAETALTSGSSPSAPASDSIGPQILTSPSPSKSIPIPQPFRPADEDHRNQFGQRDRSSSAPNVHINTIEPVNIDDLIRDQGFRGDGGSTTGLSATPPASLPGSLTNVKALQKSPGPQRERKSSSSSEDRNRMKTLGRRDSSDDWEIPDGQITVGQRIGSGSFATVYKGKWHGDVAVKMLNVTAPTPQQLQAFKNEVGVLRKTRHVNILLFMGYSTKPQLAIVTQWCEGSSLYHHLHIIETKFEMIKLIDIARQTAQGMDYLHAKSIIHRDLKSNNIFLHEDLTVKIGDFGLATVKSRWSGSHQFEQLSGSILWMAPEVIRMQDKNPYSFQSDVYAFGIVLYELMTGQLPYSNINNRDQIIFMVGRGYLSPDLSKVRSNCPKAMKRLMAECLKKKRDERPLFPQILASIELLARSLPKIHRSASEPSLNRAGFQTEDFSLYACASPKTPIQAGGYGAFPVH
# protocol-details: BRAF HiBiT degradation assay, C-terminal HiBiT-tagged BRAF G469A overexpressed in HCT-116 BRAF−/− cells (clone 34), Nano-Glo HiBiT Lytic assay
# Format: cell-based
# measurement-context: BRAF G469A (Class 2), HCT-116 BRAF−/− cells; observed Dmax relative to DMSO control
# Protocol: An A375 cell line expressing a homozygous V600E mutation was purchased from ATCC (Manassas, VA, USA). […] HiBiT signal was measured by a Nano-Glo HiBiT Lytic assay (Promega cat. no. N3050). […] Luminesce units (LU) were read on an EnVision plate reader 2105 (Perkin Elmer). Percent protein remaining and viability remaining per sample were calculated as follows: […]
Measured Dmax of individual entries

O=C1CCC(c2ccc(N3CCC(CN4CCN(c5ccc(-n6cc(-c7cc(Cl)cc(NS(=O)(=O)N8CC(F)C8)c7F)c(-c7ccncc7)n6)c(F)c5)CC4)CC3)nc2)C(=O)N1 (racemic)    30 to 70%
O=C1CCC(c2ccc(N3CCC(CN4CCN(c5ccc(-n6cc(-c7cc(Cl)cc(NS(=O)(=O)N8CCCC8)c7F)c(-c7ccncc7)n6)c(F)c5)CC4)CC3)nc2)C(=O)N1 (racemic)    > 70%

Provide one value: measured Dmax of O=C1CC[C@H](c2ccc(N3CCC(CN4CCN(c5ccc(-n6cc(-c7cc(Cl)cc(NS(=O)(=O)N8CC[C@@H](F)C8)c7F)c(-c7ccncc7)n6)cc5)CC4)CC3)cc2)C(=O)N1 > 70%

Annotate the compound O=C1CCC(c2ccc(N3CCC(CN4CCN(c5ccc(-n6cc(-c7cc(Cl)cc(NS(=O)(=O)N8CC[C@@H](F)C8)c7F)c(-c7ccncc7)n6)cc5F)CC4)CC3)nc2)C(=O)N1 (mixture of isomers) with its measured Dmax. > 70%

For the compound O=C1CCC(c2ccc(N3CCC(CN4CCN(c5cnc(-n6cc(-c7cc(Cl)cc(NS(=O)(=O)N8CCCC8)c7F)c(-c7ccncc7)n6)nc5)CC4)CC3)nc2)C(=O)N1 (racemic) , give its reported Dmax. > 70%

---

# target-or-test-system: BRAF G469A (Homo sapiens, UniProt P15056, G469A)
# Construct: Horizon Discovery (HCT-116 BRAF−/− cells); host or cells: HCT-116 BRAF−/− cells, clone 34, lentiviral transduction
# protocol-details: BRAF HiBiT degradation assay, C-terminal HiBiT-tagged BRAF G469A overexpressed in HCT-116 BRAF−/− cells (clone 34), Nano-Glo HiBiT Lytic assay
# Format: cell-based
# measurement-context: HCT-116; Class 2; BRAF G469A; percentage protein degraded at maximal compound effect relative to DMSO
endpoint-label: Dmax

Some entries whose results are on file:
CCCS(=O)(=O)Nc1cccc(-c2nc(C(C)(C)C)sc2-c2ccnc(Nc3ccc4c(c3)CCN(CC3CCN(c5ccc6c(=O)n(C7CCC(=O)NC7=O)ccc6c5)CC3)C4)n2)c1F (racemic) [Compound 85]    < 30%
CCN(C)S(=O)(=O)Nc1cccc(-c2nc(C)sc2-c2ccnc(Nc3ccc(N4CCN(C(=O)C5CCN(c6ccc(C7CCC(=O)NC7=O)cn6)CC5)CC4)cn3)n2)c1F (racemic) [Compound 40]    30 to 70%
CCCS(=O)(=O)Nc1cccc(-c2nc(C3CCN(C(=O)C4CCN(C(=O)C5CCN(c6ccc(C7CCC(=O)NC7=O)cn6)CC5)CC4)CC3)sc2-c2ccnc(N[C@H](C)CO)n2)c1F (mixture of isomers) [Compound 180]    30 to 70%
CCCS(=O)(=O)Nc1cccc(-c2cn(-c3ccc(N4CCN(CC5CCN(c6ccc(C7CCC(=O)NC7=O)cc6)CC5)CC4)cc3)nc2-c2ccncc2)c1F (racemic) [Compound 21]    30 to 70%

Please list Dmax recorded for the molecule CCCS(=O)(=O)Nc1cccc(-c2nc(C3CCN(C(=O)C4CCN(CC5CCN(c6ccc([C@H]7CCC(=O)NC7=O)cc6)CC5)CC4)CC3)sc2-c2ccnc(NC)n2)c1F [Compound 204] 30 to 70%

Find the measured Dmax of CCCS(=O)(=O)Nc1cccc(-c2cn(-c3ccc(N4CCN(CC5CCN(c6ccc([C@H]7CCC(=O)NC7=O)cn6)CC5)CC4)cc3)nc2-c2ccncc2)c1F [Compound 2] and report it. 30 to 70%

Quickly give me recorded Dmax for CCCS(=O)(=O)Nc1cccc(-c2nc(C3CCC4(CC3)CN(C(=O)CCCCCc3ccc5c(c3)C(=O)N(C3CCC(=O)NC3=O)C5)C4)sc2-c2ccnc(N)n2)c1F (racemic) [Compound 234] < 30%

Indicate its recorded Dmax; the molecule in question is CCCS(=O)(=O)Nc1cccc(-c2cn(-c3ccc(N4CCN(CC5CCN(c6ccc([C@@H]7CCC(=O)NC7=O)cc6)CC5)CC4)nc3)nc2-c2ccncc2)c1F [Compound 4] < 30%

Find the measured Dmax of CCCS(=O)(=O)Nc1cccc(-c2nc(C(C)(C)C)sc2-c2ccnc(Nc3ccc(C4CCN(CC[C@H]5CCN(c6ccc(C7CCC(=O)NC7=O)cn6)C5)CC4)cc3)n2)c1F (mixture of isomers) [Compound 173] and report it. < 30%

Look up Dmax of CCCS(=O)(=O)Nc1cccc(-c2nc(C(C)(C)C)sc2-c2ccnc(Nc3ccc4c(c3)CCN(C(=O)CN3CCC(c5ccc(NC6CCC(=O)NC6=O)cc5)CC3)C4)n2)c1F (racemic) [Compound 123] and report it. < 30%

---

# target-or-test-system: BRAF G466V (Homo sapiens, UniProt P15056, G466V)
# Construct: Horizon Discovery (HCT-116 BRAF−/− cells); host or cells: HCT-116 BRAF−/− cells, clone 8, lentiviral transduction
# Sequence (P15056 whole entry G466V): as the sequence (P15056 whole entry G469A) above, with G466V, A469G counted along it
# protocol-details: BRAF HiBiT degradation assay, C-terminal HiBiT-tagged BRAF G466V overexpressed in HCT-116 BRAF−/− cells (clone 8), Nano-Glo HiBiT Lytic assay
# Assay type: cell-based
# measurement-context: BRAF G466V; DC50 at 50%: fitted conc. at Y=50
DC50 values, listed per item

Some compounds with recorded DC50:
CCCS(=O)(=O)Nc1cccc(-c2nc(C(C)(C)C)sc2-c2ccnc(Nc3cnn(C4CCN(CC5CCN(c6ccc7c(=O)n(C8CCC(=O)NC8=O)ccc7c6)CC5)CC4)c3)n2)c1F (racemic)    > 500 nM
CCCS(=O)(=O)Nc1cccc(-c2nc(C3CCN(C(=O)C4(C)CCN(C(=O)C5CCN(c6ccc(C7CCC(=O)NC7=O)cn6)CC5)CC4)CC3)sc2-c2ccncn2)c1F (racemic)    < 10 nM
CCCS(=O)(=O)Nc1cccc(-c2nc(C(C)(C)C)sc2-c2ccnc(Nc3cnn(C4CCN(CC5CCN(c6ccc(C(=O)N[C@@H]7CCC(=O)NC7=O)nc6)CC5)CC4)c3)n2)c1F    > 500 nM
CCCS(=O)(=O)Nc1cccc(-c2nc(C(C)(C)C)sc2-c2ccnc(Nc3ccc(N4CCN(C(=O)C5CCN(c6ccc(C7CCC(=O)NC7=O)cc6)CC5)CC4)cc3)n2)c1F (racemic)    > 500 nM

Here is another compound to look at.
Indicate its recorded DC50; the compound in question is CCCS(=O)(=O)Nc1cccc(-c2nc(C(C)(C)C)sc2-c2ccnc(Nc3cccc(C4CCN(CC5CCN(c6ccc7c(=O)n(C8CCC(=O)NC8=O)ccc7c6)CC5)CC4)c3)n2)c1F (racemic) > 500 nM

---

Attribute: Dmax
# target-or-test-system: BRAF V600E (Homo sapiens, UniProt P15056, V600E)
# Construct: endogenous C-terminal HiBiT fusion tag on BRAF V600E allele; endogenous in cells; host or cells: A375 clone 1F10 (CRISPR-Cas9 knock-in of the HiBiT tag; parental A375 from ATCC)
# Sequence (P15056 whole entry V600E, the tested form may be a part): as the sequence (P15056 whole entry G469A) above, with A469G, V600E counted along it
# protocol-details: BRAF HiBiT degradation assay, C-terminal HiBiT-tagged BRAF V600E A375 cells (clone 1F10), Nano-Glo HiBiT Lytic assay
# Type: cell-based
# measurement-context: A-375; A375 (BRAF V600E); percentage protein degraded at maximal compound effect relative to DMSO

Example entries and their recorded answers appear below.
CCCS(=O)(=O)Nc1cccc(-c2cn(-c3ccc(C(=O)N4CCN(C(=O)CC5CCN(c6ccc(C7CCC(=O)NC7=O)cn6)CC5)CC4)cc3)nc2-c2ccncc2)c1F (racemic)    > 70%
CCCS(=O)(=O)Nc1cccc(-c2nc(C(C)(C)C)sc2-c2ccnc(Nc3ccc(C4CCN(C(=O)C5CCN(c6ccc(C7CCC(=O)NC7=O)cn6)CC5)CC4)cc3)n2)c1F (racemic)    > 70%

Consider the molecule CCCS(=O)(=O)Nc1cccc(-c2nc(C(C)(C)C)sc2-c2ccnc(Nc3cnn(C4CCN(CC5CCN(c6ccc7c(=O)n(C8CCC(=O)NC8=O)ccc7c6)CC5)CC4)c3)n2)c1F (racemic) . State its measured Dmax. > 70%

Ref: patent US20260317324A1
